Assign pEC50 to each entry below.
Molecular target: T1, Human PSMA on prostate cancer cell lines (C4-2B, 22RV1) (human, UniProt Q04609 1-750)
T1 construct: Endogenous PSMA of the human cell lines; also called PSMA+ cells; PSMA-expressing cell lines
T1 sequence (Q04609 whole entry): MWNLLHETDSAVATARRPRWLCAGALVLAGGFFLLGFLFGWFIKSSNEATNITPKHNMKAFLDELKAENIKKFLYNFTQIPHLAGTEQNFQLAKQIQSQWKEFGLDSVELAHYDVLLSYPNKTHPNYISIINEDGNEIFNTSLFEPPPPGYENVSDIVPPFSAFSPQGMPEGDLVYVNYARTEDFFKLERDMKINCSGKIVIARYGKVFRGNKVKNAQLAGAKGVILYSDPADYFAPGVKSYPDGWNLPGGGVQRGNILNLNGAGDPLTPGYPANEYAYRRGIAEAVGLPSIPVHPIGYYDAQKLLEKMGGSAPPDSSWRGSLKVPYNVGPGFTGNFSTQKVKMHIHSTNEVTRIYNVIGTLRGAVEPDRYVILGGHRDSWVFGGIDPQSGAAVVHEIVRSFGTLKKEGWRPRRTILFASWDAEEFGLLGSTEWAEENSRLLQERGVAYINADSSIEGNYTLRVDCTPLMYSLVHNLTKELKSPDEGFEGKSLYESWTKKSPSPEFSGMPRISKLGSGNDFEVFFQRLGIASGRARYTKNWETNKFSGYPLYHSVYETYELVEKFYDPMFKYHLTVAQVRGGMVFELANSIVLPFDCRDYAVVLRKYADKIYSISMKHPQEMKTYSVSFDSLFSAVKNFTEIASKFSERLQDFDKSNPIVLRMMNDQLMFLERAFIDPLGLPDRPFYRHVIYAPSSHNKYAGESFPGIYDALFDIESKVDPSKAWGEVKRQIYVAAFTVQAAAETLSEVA
Experiment: flow cytometry on C4-2B cells
Give bare numbers, as −log10 of the molar value.

PSMB890 (antibody, human IgG1, lambda, L234A L235A, V domains shown) VH: EVQLVESGGGLVKPGGSLRLSCAASGFTFSRYNMNWVRQAPGKGLEWVSSINSNSRYIYYADSVKGRFTISRDSAKNSLYLQMNSLRAEDTAVYYCAKTMGDYYYYYGMDVWGQGTTVTVSS VL: SSELTQPPSVSGAPGQRVTISCAGSLSNIGAGYDVHWYQQLPGTAPKLLIYGNINRLSGVPERFSGSKSGTSASLAITGLQAEDGADYYCQSYDSSLSSYVFGTGTKVTVLG; 9.03

Turning to the following binder.
Input line: State its pEC50 for this binder: PSMB898 (antibody, human IgG1, lambda, L234A L235A, V domains shown) VH: EVQLVESGGGLVQPGGSLRLSCAASGFTFSSYAMSWVRQAPGKGLEWVSAISGGSGSTYYADSVKGRFTISRDNSKNTLYLQMNSLRAEDSAVYYCAKDGVGATPYYFDYWGQGTLVTVSS VL: QSVLTQPPSVSAAPGQKVTISCSGSSSNIGINYVSWYQQLPGTAPKLLIYDNNKRPSGIPDRFSGSKSGTSATLGITGLQTGDEADYYCGTWDSSLSAVVFGGGTKLTVLG
Output line: 8.19
